tested on: Fibroblast; assay: Incucyte cell viability with human fibroblast; type: toxicity, cell-based; conditions: 6 h, 10 µM, compound concentration 10 uM, replicate number 1, timepoint 6 hours; further: filed as whole numbers so only -1 and 0 and 1 occur
Catalogue of Growth Rate readings, one per entry.
Write the number on its own, no unit after it.

{"smiles-string": "CNc1nc(NCc2ccc(NS(C)(=O)=O)cc2Cl)cc(-c2ccccn2)n1", "system": "Fibroblast", "reported-metric": "Growth Rate", "quantitative-result": 0}
{"smiles-string": "C[C@@H](c1cccc(CN)c1)n1cc(Cl)cc(C(N)=O)c1=N.Cl", "system": "Fibroblast", "reported-metric": "Growth Rate", "quantitative-result": 1}
{"smiles-string": "COc1ccc(CNC(=O)c2cc(-c3cncc(Cl)c3)cnc2-c2ccccn2)nc1OC", "system": "Fibroblast", "reported-metric": "Growth Rate", "quantitative-result": 0}
{"smiles-string": "CN1C(=O)c2sccc2N(C)c2nc(Nc3ccc(S(N)(=O)=O)cc3)ncc21", "system": "Fibroblast", "reported-metric": "Growth Rate", "quantitative-result": 1}

Kindly consider the entry below.
Look at this compound and give its reported Growth Rate. "CN([C@@H]1CCc2c(CC(=O)O)c3ccccc3n2C1)S(=O)(=O)c1ccc(F)cc1" 0

----------
test system: U2OS; assay: Multiplex assay against U2OS; format: toxicity, cell-based; settings: human, 48 h, 10 µM, compound concentration 10 uM, replicate 2
reported-metric: Population Fragmented Nuclei (%)
Your answer is read as %, so omit the unit and give the number.

Look at this compound and give its reported Population Fragmented Nuclei (%). c1cn2cc(-c3ccc4cn[nH]c4c3)nc(Nc3ccc(N4CCOCC4)cc3)c2n1 [ENTOSPLETINIB] 34

Look at this compound and give its reported Population Fragmented Nuclei (%). "C=CC(=O)Nc1cccc(C(=O)Nc2ccc(Nc3cc(-c4[nH]c(SC)nc4C)ccn3)cc2)c1" 9

Look at this compound and give its reported Population Fragmented Nuclei (%). "Cc1csc2c(N[C@@H](C)CN3CCN(S(=O)(=O)c4ccc(Cl)c(Cl)c4)CC3)ncnc12" 15

Look at this compound and give its reported Population Fragmented Nuclei (%). COc1cccc([C@@H](C)NCCCc2ccccc2Cl)c1.Cl [TECALCET HYDROCHLORIDE] 10

Look at this compound and give its reported Population Fragmented Nuclei (%). "COc1cc2nccc(Oc3ccc(NC(=O)Nc4cc(C)on4)c(Cl)c3)c2cc1OC.O" 13

Look at this compound and give its reported Population Fragmented Nuclei (%). "OC1(c2ccc(Cl)cc2)CCN(Cc2c[nH]c3ccccc23)CC1" 32

----------
tested on: U2OS; assay: Multiplex assay against U2OS; assay type: toxicity, cell-based; details: human, 48 h, 1 µM, compound concentration 1 uM, replicate 2
Catalogue of Population Normal (%) readings, one per entry.
Your answer is read as %, so omit the unit and give the number.

// solved cases for Population Normal (%) follow
{"molecule": "CC(C)(O)CNc1ncc(-c2ccnc(Nc3ccnc(Cl)c3)n2)c(CC2CC2)n1", "system": "U2OS", "Population Normal (%)": 96}
{"molecule": "O=C1NCN(c2ccccc2)C12CCN(CCCOc1ccc(F)cc1)CC2 [SPIRAMIDE]", "system": "U2OS", "Population Normal (%)": 98}
{"molecule": "OC1(c2ccc(Cl)cc2)CCN(Cc2c[nH]c3ccccc23)CC1", "system": "U2OS", "Population Normal (%)": 96}
{"molecule": "CN1CCC[C@@H]1CCO[C@](C)(c1ccccc1)c1ccc(Cl)cc1.O=C(O)/C=C/C(=O)O [CLEMASTINE FUMARATE]", "system": "U2OS", "Population Normal (%)": 98}
{"molecule": "Cc1c(-c2ccc(O)cc2)n(Cc2ccc(OCCN3CCCCCC3)cc2)c2ccc(O)cc12", "system": "U2OS", "Population Normal (%)": 96}

Look at this molecule and give its reported Population Normal (%). "Cc1[nH]c(/C=C2\C(=O)Nc3ccc(S(=O)(=O)N(C)c4cccc(Cl)c4)cc32)c(C)c1C(=O)N1CCN(C)CC1" 85
